test system: 485368-065-R3-J5-PDC spheroids with HUVEC/MSC, viability; assay: Anticancer human tumor 485368-065-R3-J5-PDC patient-derived pancreatic carcinoma cell line growth inhibition [RAS]; conditions: curve of first compound; second compound 0.03 µM
A collection of compounds and their measured IC50
valueType: IC50

[[record]]
compound = "CC(=O)OC12COC1CC(O)C1(C)C(=O)C(O)C3=C(C)C(OC(=O)C(O)C(NC(=O)OC(C)(C)C)c4ccccc4)CC(O)(C(OC(=O)c4ccccc4)C21)C3(C)C (stereo not drawn) + CCn1c(-c2cccnc2C(C)OC)c2c3cc(ccc31)N1CCOC(CC(NC(=O)C(C(C)C)N(C)C(=O)C3(F)CCN(C(=O)C#CC(C)(C)N(C)C)CC3)C(=O)N3CCCC(N3)C(=O)OCC(C)(C)C2)C1"
valuetype = "IC50"
recordedvalue = "< 31.6 nM"

[[record]]
compound = "CC(Nc1ccc2c(c1)OCCn1cc(N3C(=O)OCC3C(F)F)nc1-2)C(N)=O (stereo not drawn) + CCn1c(-c2cccnc2C(C)OC)c2c3cc(ccc31)N1CCOC(CC(NC(=O)C(C(C)C)N(C)C(=O)C3(F)CCN(C(=O)C#CC(C)(C)N(C)C)CC3)C(=O)N3CCCC(N3)C(=O)OCC(C)(C)C2)C1"
valuetype = "IC50"
recordedvalue = "> 10000 nM"

[[record]]
compound = "O=C(c1ccc(F)c(F)c1Nc1ccc(I)cc1F)N1CC(O)([C@@H]2CCCCN2)C1 + CCn1c(-c2cccnc2C(C)OC)c2c3cc(ccc31)N1CCOC(CC(NC(=O)C(C(C)C)N(C)C(=O)C3(F)CCN(C(=O)C#CC(C)(C)N(C)C)CC3)C(=O)N3CCCC(N3)C(=O)OCC(C)(C)C2)C1"
valuetype = "IC50"
recordedvalue = "54.5 nM"


----------
Tested on: 485368-065-R3-J5-PDC spheroids with HUVEC/MSC, viability
Assay: Anticancer human tumor 485368-065-R3-J5-PDC cell line growth inhibition [RAS]; active = viability on the fitted dose curve at most 10% of control; inactive = the rest;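 also: spheroids exposed to agents for seven days before readout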
Details: second compound 0.0949 µM; first compound 0.03 µM
From the text: RAS pathway inhibitors in Combinations in Complex Spheroids A high-throughput screen of multi-cell type tumor spheroids was designed to identify active combinations of RAS pathway inhibitors and targeted small molecules. Complex spheroids include a stromal component modeled by human endothelial cells (HUVEC) and fibroblasts modeled by human mesenchymal stem cells (MSCs). […] Compounds. […] If the clinical Cmax for an agent had not been determined, the highest concentration tested was 10 microM. […]
Classes used: T (active), F (inactive)

[[record]]
compound = "CCc1c2c(nc3ccc(O)cc13)-c1cc3c(c(=O)n1C2)COC(=O)[C@]3(O)CC + CCn1c(-c2cccnc2C(C)OC)c2c3cc(ccc31)N1CCOC(CC(NC(=O)C(C(C)C)N(C)C(=O)C3(F)CCN(C(=O)C#CC(C)(C)N(C)C)CC3)C(=O)N3CCCC(N3)C(=O)OCC(C)(C)C2)C1"
categorylabel = "T"

[[record]]
compound = "CCc1c2c(nc3ccc(O)cc13)-c1cc3c(c(=O)n1C2)COC(=O)[C@]3(O)CC + CCn1c(-c2cc(N3CCN(C)CC3)cnc2C(C)OC)c2c3cc(ccc31)-c1csc(n1)CC(NC(=O)C1CC1C)C(=O)N1CCCC(N1)C(=O)OCC(C)(C)C2"
categorylabel = "T"

[[record]]
compound = "CC1(C)CCC(Nc2ncc(C(F)(F)F)c(-c3c[nH]c4c(P(C)(C)=O)c(C#N)ccc34)n2)CN1 (centres undefined) + CCn1c(-c2cc(N3CCN(C)CC3)cnc2C(C)OC)c2c3cc(ccc31)-c1csc(n1)CC(NC(=O)C1CC1C)C(=O)N1CCCC(N1)C(=O)OCC(C)(C)C2"
categorylabel = "F"

[[record]]
compound = "CC1(C)CCC(Nc2ncc(C(F)(F)F)c(-c3c[nH]c4c(P(C)(C)=O)c(C#N)ccc34)n2)CN1 (centres undefined) + CCn1c(-c2cccnc2C(C)OC)c2c3cc(ccc31)N1CCOC(CC(NC(=O)C(C(C)C)N(C)C(=O)C3(F)CCN(C(=O)C#CC(C)(C)N(C)C)CC3)C(=O)N3CCCC(N3)C(=O)OCC(C)(C)C2)C1"
categorylabel = "F"

